- System: AMBEL, Ragweed, Common, Ambrosia artemiisifolia, L.
- Assay name: Postemergence herbicidal evaluation (Example 147)
- Assay type: in vivo
- Test context: rate 0.032 kg/ha, rating scale 0-9, two to three weeks after treatment
- Description: Seedling plants were grown in jiffy flats for about two weeks. The test compounds were dispersed in 80/20 acetone/water mixtures containing 1.0% SUN-IT®II, a methylated seed oil, in sufficient quantities to provide the equivalent of about 0.016 to 0.032 kg per hectare of active compound when applied to the plants through a spray nozzle operating at 40 psi for a predetermined time. […]
I'd be grateful if you could share measured Postemergence herbicidal rating AMBEL for these entries.
Keep the answer to the number alone.

Tested system AMBEL, Ragweed, Common, Ambrosia artemiisifolia, L.; Postemergence herbicidal rating AMBEL recorded for Cn1c(C(F)(F)F)cc(=O)n(-c2cc(C(=O)NS(=O)(=O)NC(C)(C)C)c(Cl)cc2F)c1=O [Example 65] was 9.0

Tested system AMBEL, Ragweed, Common, Ambrosia artemiisifolia, L.; Postemergence herbicidal rating AMBEL recorded for C#CCN(C)S(=O)(=O)NC(=O)c1cc(-n2c(=O)cc(C(F)(F)F)n(C)c2=O)c(F)cc1Cl [Example 57] was 2.0

Tested system AMBEL, Ragweed, Common, Ambrosia artemiisifolia, L.; Postemergence herbicidal rating AMBEL recorded for CCCCN(C)S(=O)(=O)NC(=O)c1cc(-n2c(=O)cc(C(F)(F)F)n(C)c2=O)c(F)cc1Cl [Example 83] was 8.0

Tested system AMBEL, Ragweed, Common, Ambrosia artemiisifolia, L.; Postemergence herbicidal rating AMBEL recorded for CCC(C)N(C)S(=O)(=O)NC(=O)c1cc(-n2c(=O)cc(C(F)(F)F)n(C)c2=O)c(F)cc1Cl (stereo not shown) [Example 69] was 9.0

Tested system AMBEL, Ragweed, Common, Ambrosia artemiisifolia, L.; Postemergence herbicidal rating AMBEL recorded for CCNS(=O)(=O)NC(=O)c1cc(-n2c(=O)cc(C(F)(F)F)n(C)c2=O)c(F)cc1Cl [Example 80] was 8.0

Tested system AMBEL, Ragweed, Common, Ambrosia artemiisifolia, L.; Postemergence herbicidal rating AMBEL recorded for CNS(=O)(=O)NC(=O)c1cc(-n2c(=O)cc(C(F)(F)F)n(C)c2=O)c(F)cc1Cl [Example 56] was 9.0

Tested system AMBEL, Ragweed, Common, Ambrosia artemiisifolia, L.; Postemergence herbicidal rating AMBEL recorded for C=CCN(C)S(=O)(=O)NC(=O)c1cc(-n2c(=O)cc(C(F)(F)F)n(C)c2=O)c(F)cc1Cl [Example 59] was 9.0

====

- Tested on: SETVI, Green foxtail, Setaria viridis, (L.)Beau
- Assay name: Preemergence herbicidal evaluation (Example 148)
- Format: in vivo
- Test context: rate 0.25 kg/ha, rating scale 0-9, two to four weeks after treatment
Measured parameter: Preemergence herbicidal rating SETVI
Keep the answer to the number alone.

CCC(C)NS(=O)(=O)NC(=O)c1cc(-n2c(=O)cc(C(F)(F)F)n(C)c2=O)c(F)cc1Cl (stereo not drawn) [Example 64] has a reported Preemergence herbicidal rating SETVI of 9.0

CCNS(=O)(=O)NC(=O)c1cc(-n2c(=O)cc(C(F)(F)F)n(C)c2=O)c(F)cc1Cl [Example 80] has a reported Preemergence herbicidal rating SETVI of 0.0

Cn1c(C(F)(F)F)cc(=O)n(-c2cc(C(=O)NS(N)(=O)=O)c(Cl)cc2F)c1=O [Example 58] has a reported Preemergence herbicidal rating SETVI of 6.0

CCN(CC)S(=O)(=O)NC(=O)c1cc(-n2c(=O)cc(C(F)(F)F)n(C)c2=O)c(F)cc1Cl [Example 68] has a reported Preemergence herbicidal rating SETVI of 8.0

COc1cccc(CN(C)S(=O)(=O)NC(=O)c2cc(-n3c(=O)cc(C(F)(F)F)n(C)c3=O)c(F)cc2Cl)c1 [Example 70] has a reported Preemergence herbicidal rating SETVI of 5.0

CN(Cc1cccc(Cl)c1)S(=O)(=O)NC(=O)c1cc(-n2c(=O)cc(C(F)(F)F)n(C)c2=O)c(F)cc1Cl [Example 55] has a reported Preemergence herbicidal rating SETVI of 8.0

CCC(C)N(C)S(=O)(=O)NC(=O)c1cc(-n2c(=O)cc(C(F)(F)F)n(C)c2=O)c(F)cc1Cl (stereo not drawn) [Example 69] has a reported Preemergence herbicidal rating SETVI of 1.0

CCCN(CC)S(=O)(=O)NC(=O)c1cc(-n2c(=O)cc(C(F)(F)F)n(C)c2=O)c(F)cc1Cl [Example 62] has a reported Preemergence herbicidal rating SETVI of 7.0

Cn1c(C(F)(F)F)cc(=O)n(-c2cc(C(=O)NS(=O)(=O)NCc3cccs3)c(Cl)cc2F)c1=O [Example 77] has a reported Preemergence herbicidal rating SETVI of 2.0

CN(Cc1ccccc1)S(=O)(=O)NC(=O)c1cc(-n2c(=O)cc(C(F)(F)F)n(C)c2=O)c(F)cc1Cl [Example 61] has a reported Preemergence herbicidal rating SETVI of 6.0

COc1ccc(CNS(=O)(=O)NC(=O)c2cc(-n3c(=O)cc(C(F)(F)F)n(C)c3=O)c(F)cc2Cl)cc1 [Example 82] has a reported Preemergence herbicidal rating SETVI of 7.0

CCCN(C)S(=O)(=O)NC(=O)c1cc(-n2c(=O)cc(C(F)(F)F)n(C)c2=O)c(F)cc1Cl [Example 67] has a reported Preemergence herbicidal rating SETVI of 8.0

CCN(C)S(=O)(=O)NC(=O)c1cc(-n2c(=O)cc(C(F)(F)F)n(C)c2=O)c(F)cc1Cl [Example 66] has a reported Preemergence herbicidal rating SETVI of 6.0

CCOC(=O)CN(C)S(N)(=O)=O [compound 53] has a reported Preemergence herbicidal rating SETVI of 7.3

C#CCNS(=O)(=O)NC(=O)c1cc(-n2c(=O)cc(C(F)(F)F)n(C)c2=O)c(F)cc1Cl [Example 71] has a reported Preemergence herbicidal rating SETVI of 2.0

Reference source for all entries: patent US6689773B2
